Biological target: glucagon receptor (Homo sapiens, UniProt P47871)
Construct: expressed in transfected cells; host or cells: HEK293
Sequence (P47871 26-477): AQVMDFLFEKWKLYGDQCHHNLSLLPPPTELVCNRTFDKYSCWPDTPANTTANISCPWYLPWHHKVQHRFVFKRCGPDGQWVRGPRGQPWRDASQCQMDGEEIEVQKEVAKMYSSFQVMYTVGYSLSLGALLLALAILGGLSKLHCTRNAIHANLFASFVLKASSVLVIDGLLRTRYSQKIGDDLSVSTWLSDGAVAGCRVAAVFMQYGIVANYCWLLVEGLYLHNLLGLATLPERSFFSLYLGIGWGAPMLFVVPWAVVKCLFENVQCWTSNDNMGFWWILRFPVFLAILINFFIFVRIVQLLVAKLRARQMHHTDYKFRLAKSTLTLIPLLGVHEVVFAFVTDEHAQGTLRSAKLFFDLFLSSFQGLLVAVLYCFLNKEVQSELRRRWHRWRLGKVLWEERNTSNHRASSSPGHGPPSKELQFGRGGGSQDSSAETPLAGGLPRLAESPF
Test: cAMP synthesis functional assay (firefly luciferase reporter in HEK293 cells), glucagon receptor
Type: cell-based
Details: Glucagon Receptor EC50, nM, Table 1
Where no end group is shown, it is not given here.
measured.attribute: EC50 (nM)
Your answer should be a plain number; it is taken to be in nM.

Query string: I am curious: what EC50 value has been reported for HSQGTFTSDYSKYLDKIHQEEFIAWLMNT-NH2 [mt-68] ?
Result string: 1.97

* * *

Biological target: glucagon receptor (Homo sapiens, UniProt P47871)
Construct: expressed in transfected cells; host or cells: HEK293
Assay: cAMP synthesis functional assay (firefly luciferase reporter in HEK293 cells), glucagon receptor
Assay type: cell-based
Conditions: read-out: Glucagon Receptor EC50; Table 1
Bridges are numbered along the chain shown (N, C = ends). Where no end group is shown, it is not given here. [ ]: non-standard residue; d: D form. PEG 40 kDa = PEG (40 kDa) covalently attached to Cys; Nle = CCCC[C@H](N)C(=O)O; Aib = CC(C)(N)C(=O)O
measured.attribute: pEC50
Lab note: report pEC50 as minus log10 of the concentration in molar units, number only.

Query string: Any idea what pEC50 came out for mt-205: glucagon analog peptide, C-terminal amide (Y[Aib]EGTFTSDYSIYLDEQAAKEFVNWLLAGRPSSGAPPPSC(PEG 40 kDa)-NH2; lactam 16-20) on glucagon receptor (Homo sapiens, UniProt P47871)?
Result string: 6.17

Query string: Any idea what pEC50 came out for mt-203: glucagon analog peptide, C-terminal amide (Y[Aib]QGTFTSDYSIYLDEQAAKEFVNWL[Nle]AGGPSSGAPPPSC(PEG 40 kDa)-NH2; lactam 16-20) on glucagon receptor (Homo sapiens, UniProt P47871)?
Result string: 8.32

Query string: Any idea what pEC50 came out for mt-179: glucagon analog peptide, C-terminal amide; called GIP/glucagon co-agonist and triagonist (Y[Aib]QGTFISDYSIYLDEQAAKEFVC(PEG 40 kDa)WLLAG-NH2; lactam 16-20) on glucagon receptor (Homo sapiens, UniProt P47871)?
Result string: 8.90

Query string: Any idea what pEC50 came out for mt-202: glucagon analog peptide, C-terminal amide (Y[Aib]QGTFVSDYSIYLDEQAAKEFVNWLLAGGPSSGAPPPSC(PEG 40 kDa)-NH2; lactam 16-20) on glucagon receptor (Homo sapiens, UniProt P47871)?
Result string: 8.63

* * *

Biological target: GIP receptor (Homo sapiens)
Construct: expressed in transfected cells; host or cells: HEK293
Sequence (P48546 22-466): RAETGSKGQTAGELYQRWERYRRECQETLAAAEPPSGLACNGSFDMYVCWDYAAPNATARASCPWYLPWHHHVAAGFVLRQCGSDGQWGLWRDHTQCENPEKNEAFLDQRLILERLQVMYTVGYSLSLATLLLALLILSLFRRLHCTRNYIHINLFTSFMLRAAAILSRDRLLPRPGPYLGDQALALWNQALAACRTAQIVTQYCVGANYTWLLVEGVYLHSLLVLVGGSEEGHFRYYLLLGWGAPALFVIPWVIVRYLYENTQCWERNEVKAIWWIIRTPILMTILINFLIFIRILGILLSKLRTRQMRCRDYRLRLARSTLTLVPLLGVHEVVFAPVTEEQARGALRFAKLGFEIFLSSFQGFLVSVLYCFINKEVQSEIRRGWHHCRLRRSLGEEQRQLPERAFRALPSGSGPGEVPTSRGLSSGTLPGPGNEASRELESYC
Experiment: cAMP synthesis functional assay (firefly luciferase reporter in HEK293 cells), GIP receptor
Format: cell-based
Settings: read-out: GIP Receptor EC50; Table 2
Where no end group is shown, it is not given here. [ ]: non-standard residue; d: D form. PEG 40 kDa = PEG (40 kDa) covalently attached to Cys; Aib = CC(C)(N)C(=O)O
measured.attribute: EC50 (nM)
Your answer should be a plain number; it is taken to be in nM.

Query string: I am curious: what EC50 value has been reported for mt-249: linear peptide lacking a lactam bridge, AIB at position 16 and/or 20 (Y[Aib]QGTFTSDYSIYLD[Aib]QAAQEFVNWLLAGGPSSGAPPPSC(PEG 40 kDa)-NH2) ?
Result string: 2.71
